Entries and their measured AC50 follow.
# target.or.test.system: UniProtKB P46098
# Sequence (P46098 whole entry): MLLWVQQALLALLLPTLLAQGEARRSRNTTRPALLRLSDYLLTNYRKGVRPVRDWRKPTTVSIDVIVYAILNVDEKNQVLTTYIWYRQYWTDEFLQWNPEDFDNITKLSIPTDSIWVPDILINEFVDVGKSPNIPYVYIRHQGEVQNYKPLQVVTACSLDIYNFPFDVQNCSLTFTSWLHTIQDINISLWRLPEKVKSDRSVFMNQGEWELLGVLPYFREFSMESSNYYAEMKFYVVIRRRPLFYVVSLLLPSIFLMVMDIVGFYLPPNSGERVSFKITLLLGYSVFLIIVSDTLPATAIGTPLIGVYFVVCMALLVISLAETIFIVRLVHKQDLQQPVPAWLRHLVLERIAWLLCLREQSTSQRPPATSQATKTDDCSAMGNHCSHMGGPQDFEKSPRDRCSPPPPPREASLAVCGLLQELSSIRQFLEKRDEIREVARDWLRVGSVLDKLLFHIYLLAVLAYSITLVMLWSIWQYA
# Type: functional

molecule | AC50
OC1(c2ccc(Cl)cc2)c2ccccc2C2=NCCN21 (centres undefined) | > 30 µM
CCC(=O)O[C@H]1CC[C@H]2[C@@H]3CCC4=CC(=O)CC[C@]4(C)[C@H]3CC[C@]12C [TESTOSTERONE PROPIONATE] | > 30 µM
CCC1(c2ccccc2)CCC(=O)NC1=O (centres undefined) [GLUTETHIMIDE] | > 30 µM
CC1=C(C)C(=O)C(C(CCCCCC(=O)O)c2ccccc2)=C(C)C1=O (centres undefined) | > 30 µM
Cn1c(=O)cc(N2CCC[C@@H](N)C2)n(Cc2ccccc2C#N)c1=O | > 10 µM
C[C@@H](NCCCc1cccc(C(F)(F)F)c1)c1cccc2ccccc12 | > 30 µM
COc1cc2nc(N3CCN(C(=O)C4CCCO4)CC3)nc(N)c2cc1OC (centres undefined) | > 10 µM
CCCCC(=O)O[C@]1(C(=O)CO)[C@@H](C)C[C@H]2[C@@H]3CCC4=CC(=O)C=C[C@]4(C)[C@@]3(F)[C@@H](O)C[C@@]21C [BETAMETHASONE VALERATE] | > 30 µM
CCOC(=O)C1=C[C@]2(CC)CCCN3CCc4c(n1c1ccccc41)[C@@H]32 | > 30 µM
C[C@]12CCC(=O)C(O)=C1CC[C@@H]1[C@@H]2CC[C@]2(C)C(=O)CC[C@@H]12 | > 30 µM
Cc1cc2cc3c(C)cc(=O)oc3c(C)c2o1 | > 30 µM
Cc1onc(-c2ccccc2)c1-c1ccc(S(N)(=O)=O)cc1 | > 30 µM
C[C@H]1c2cccc(O)c2C(=O)C2=C(O)[C@]3(O)C(=O)C(C(N)=O)=C(O)[C@@H](N(C)C)[C@@H]3[C@@H](O)[C@@H]21 | > 30 µM
CC(C)c1nc(N(C)S(C)(=O)=O)nc(-c2ccc(F)cc2)c1/C=C/[C@@H](O)C[C@@H](O)CC(=O)O | > 30 µM
CC(C)NCC(O)c1ccc(O)c(O)c1 (centres undefined) | > 10 µM
CC(S)C(=O)NCC(=O)O (centres undefined) | > 30 µM
C[C@H](Cc1ccc(O)c(O)c1)[C@@H](C)Cc1ccc(O)c(O)c1 | > 30 µM
CCC(COC(=O)c1cc(OC)c(OC)c(OC)c1)(c1ccccc1)N(C)C (centres undefined) | > 30 µM
NC1CCN(c2nc3c(cc2F)c(=O)c(C(=O)O)cn3-c2ccc(F)cc2F)C1 (centres undefined) | > 30 µM
CCCC(CCC)C(=O)O | > 30 µM
O=C(O)CCNC(=O)c1ccccc1 | > 30 µM
Cc1ncc2n1-c1ccc(Cl)cc1C(c1ccccc1F)=NC2 | > 30 µM
CC(C)(C)C(=O)OCC(=O)[C@H]1CC[C@H]2[C@@H]3CCC4=CC(=O)CC[C@]4(C)[C@H]3CC[C@]12C [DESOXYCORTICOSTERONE PIVALATE] | > 30 µM
Cc1cnc(C(=O)NCCc2ccc(S(=O)(=O)NC(=O)NC3CCCCC3)cc2)cn1 [GLIPIZIDE] | > 10 µM
C[N@+]1(CCF)[C@@H]2CC[C@H]1C[C@@H](OC(=O)C(O)(c1ccccc1)c1ccccc1)C2 | > 30 µM
CC(C)Cc1ccc(C(C)C(=O)O)cc1 (centres undefined) | > 30 µM
C[C@]12CC[C@@H]3c4ccc(O)cc4C[C@@H](CCCCCCCCC[S+]([O-])CCCC(F)(F)C(F)(F)F)[C@H]3[C@@H]1CC[C@@H]2O (some centres undefined) | > 30 µM
CCCC(CCC)C(N)=O [VALPROMIDE] | > 30 µM
O=C1CN(/N=C/c2ccc(-c3ccc([N+](=O)[O-])cc3)o2)C(O)=N1 | > 30 µM
CCCN[C@H]1CCc2nc(N)sc2C1 [PRAMIPEXOLE] | > 30 µM
COc1ccc2nc3cc(Cl)ccc3c(Nc3cc(CN4CCCC4)c(O)c(CN4CCCC4)c3)c2n1 | > 30 µM
O=C1CCc2cc(OCCCCc3nnnn3C3CCCCC3)ccc2N1 | > 30 µM
CC(=O)[C@@]1(O)CC[C@H]2[C@@H]3C=C(Cl)C4=CC(=O)[C@@H]5C[C@@H]5[C@]4(C)[C@H]3CC[C@@]21C | > 30 µM
Oc1ccc2c(c1)CC[C@H](c1ccccc1)[C@@H]2c1ccc(OCCN2CCCC2)cc1 | > 30 µM

----------
# target.or.test.system: Prostaglandin G/H synthase 1 (Homo sapiens, UniProt P23219); further: assay procedure not described here
# Sequence (P23219 whole entry): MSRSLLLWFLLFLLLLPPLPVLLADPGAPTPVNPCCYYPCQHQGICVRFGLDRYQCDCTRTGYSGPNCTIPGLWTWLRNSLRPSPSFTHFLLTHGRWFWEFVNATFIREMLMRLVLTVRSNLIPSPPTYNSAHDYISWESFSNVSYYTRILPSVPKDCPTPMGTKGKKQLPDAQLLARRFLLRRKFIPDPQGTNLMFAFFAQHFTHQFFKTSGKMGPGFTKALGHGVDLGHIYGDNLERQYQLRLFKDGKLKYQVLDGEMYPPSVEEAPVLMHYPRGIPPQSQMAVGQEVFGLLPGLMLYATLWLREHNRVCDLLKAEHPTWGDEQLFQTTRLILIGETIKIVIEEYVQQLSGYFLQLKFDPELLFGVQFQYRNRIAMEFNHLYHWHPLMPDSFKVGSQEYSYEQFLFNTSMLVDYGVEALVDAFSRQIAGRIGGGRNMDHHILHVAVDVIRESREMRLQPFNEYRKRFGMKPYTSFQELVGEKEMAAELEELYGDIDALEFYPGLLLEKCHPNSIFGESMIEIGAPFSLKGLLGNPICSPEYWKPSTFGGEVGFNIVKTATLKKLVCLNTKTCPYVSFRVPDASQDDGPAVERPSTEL
# Format: functional
Entries and their measured AC50 follow.

compound | AC50
COc1cc2c(cc1OC)CC(=O)N(CCCN(C)C[C@H]1Cc3cc(OC)c(OC)cc31)CC2 [IVABRADINE] | > 30 µM
OC[C@H]1O[C@@H](c2ccc(Cl)c(Cc3ccc(O[C@H]4CCOC4)cc3)c2)[C@H](O)[C@@H](O)[C@@H]1O [EMPAGLIFLOZIN] | > 30 µM
COc1cc(N2CCC(N3CCN(C)CC3)CC2)ccc1Nc1ncc(Cl)c(Nc2ccccc2P(C)(C)=O)n1 [BRIGATINIB] | > 30 µM
Cc1onc(-c2ccccc2)c1C(=O)N[C@@H]1C(=O)N2[C@@H]1SC(C)(C)[C@@H]2C(=O)O [OXACILLIN] | > 30 µM
CC[C@@H]([C@H](C)O)n1ncn(-c2ccc(N3CCN(c4ccc(OC[C@@H]5CO[C@@](Cn6cncn6)(c6ccc(F)cc6F)C5)cc4)CC3)cc2)c1=O [POSACONAZOLE] | > 30 µM
Cc1ccccc1N1CCN(CCc2nnc3n2CCCC3)CC1 [DAPIPRAZOLE] | > 30 µM
O=[N+]([O-])c1ccc(O)c2ncccc12 [NITROXOLINE] | > 30 µM
COc1cc2nc(N3CCN(C(=O)C4CCCO4)CC3)nc(N)c2cc1OC (configuration not stated) [TERAZOSIN] | > 30 µM
Cc1c(N(C)CS(=O)(=O)O)c(=O)n(-c2ccccc2)n1C [METAMIZOLE] | > 30 µM
C=CCSCC1Nc2cc(Cl)c(S(N)(=O)=O)cc2S(=O)(=O)N1 (configuration not stated) [ALTHIAZIDE] | > 30 µM
CC[C@@]1(O)C(=O)OCc2c1cc1n(c2=O)Cc2cc3c([N+](=O)[O-])cccc3nc2-1 [RUBITECAN] | > 30 µM
COC(=O)c1ccc(O)cc1 [METHYLPARABEN] | > 30 µM
N[C@@H](CO)C(=O)O [SERINE] | > 30 µM
C=C1CC[C@H](O)C/C1=C/C=C1\CCC[C@]2(C)[C@@H]([C@H](C)/C=C/[C@H](C)C(C)C)CC[C@@H]12 [ERGOCALCIFEROL] | 20.3 µM
CCOC(=O)[C@H](CCc1ccccc1)N[C@@H](C)C(=O)N(CC(=O)O)C1Cc2ccccc2C1 | > 30 µM
CC(=O)Oc1cc(C(F)(F)F)ccc1C(=O)O [TRIFLUSAL] | > 30 µM
CCOC(=O)c1c(C)cc2c(CO)n[nH]c(=O)c2c1C [OXAGRELATE] | > 30 µM

----------
# target.or.test.system: Muscarinic acetylcholine receptor M1 (Homo sapiens); further: assay procedure not described here
# Sequence (P11229 whole entry): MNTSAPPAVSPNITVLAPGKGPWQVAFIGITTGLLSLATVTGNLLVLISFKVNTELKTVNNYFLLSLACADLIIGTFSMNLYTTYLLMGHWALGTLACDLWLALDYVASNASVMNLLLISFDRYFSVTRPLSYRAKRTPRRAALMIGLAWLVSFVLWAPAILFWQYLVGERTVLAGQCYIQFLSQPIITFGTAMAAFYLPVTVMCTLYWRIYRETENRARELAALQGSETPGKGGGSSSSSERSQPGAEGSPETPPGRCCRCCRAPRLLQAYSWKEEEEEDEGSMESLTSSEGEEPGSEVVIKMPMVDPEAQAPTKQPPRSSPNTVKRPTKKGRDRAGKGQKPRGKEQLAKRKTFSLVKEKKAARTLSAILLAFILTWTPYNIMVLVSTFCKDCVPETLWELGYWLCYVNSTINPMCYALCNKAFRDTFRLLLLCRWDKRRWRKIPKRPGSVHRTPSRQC
# Assay type: functional, cell-based

compound | target.or.test.system | AC50
CC[C@H](c1ccc(O)cc1)[C@@H](CC)c1ccc(O)cc1 [HEXESTROL] | Muscarinic acetylcholine receptor M1 (Homo sapiens) | > 3 µM
CCCN(CCC)C(=O)Cc1c(-c2ccc(Cl)cc2)nc2ccc(Cl)cn12 [ALPIDEM] | Muscarinic acetylcholine receptor M1 (Homo sapiens) | > 10 µM
CC(C)N(CCNC(=O)CN1CCCC1=O)C(C)C | Muscarinic acetylcholine receptor M1 (Homo sapiens) | > 30 µM
FC(F)(F)c1ccc(CNc2ccc(Cc3c[nH]c4ncc(Cl)cc34)cn2)cn1 [PEXIDARTINIB] | Muscarinic acetylcholine receptor M1 (Homo sapiens) | 0.389 µM
OC[C@H]1O[C@@H](c2ccc(F)c(Cc3cc4ccccc4s3)c2)[C@H](O)[C@@H](O)[C@@H]1O [IPRAGLIFLOZIN] | Muscarinic acetylcholine receptor M1 (Homo sapiens) | 19.8 µM
